All values here come from the supplement of paper PMC10567573.

Items are presented alongside their recorded protein stability index.
Test: protein stability index of a GFP-peptide fusion (GPS, HEK-293T) (PSI 1-6); higher = more stable;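 further: 24-mer peptide tiles fused after GFP, lentivirally expressed, FACS-sorted into six equal bins by GFP/DsRed ratio, decoded by Illumina sequencing, PSI is the read-weighted mean bin number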
Test Parameters: treatment: MLN4924 1 uM, 8 h; c terminus: a fixed tail appended
Assay Metric: protein stability index

Residues | Assay Metric | Test Value
FGSQQSPIDVVEKYDPKTQEWSFL [KLHL12] | protein stability index | 3.65
SSNLGQHQRIHTGEKPFECNECGK [ZNF232] | protein stability index | 5.01
KFDVLRAIELFHSYRETRRKEGIV [PTPN9] | protein stability index | 1.91
EGYRVSQALRENTYPFLAMIMLKD [FAF2] | protein stability index | 2.44
ETKLDLISKGEEPRAGKEESGVSV [SLC29A1] | protein stability index | 5.39
CDDSFTPQEKLWQQLRRGRYVEFN [CPOX] | protein stability index | 2.89
FSQLYLYSFISLFIYMVLSLFIAL [MCOLN1] | protein stability index | 3.24
